# measurement.description: in vivo
# Format: in vivo
# run.conditions: athymic, mouse, tumour (H69/LX4 SCLC xenograft), iv; single i.v. 20 mg kg-1, H69/LX4 tumour; read-out: AUC0- in tumour tissue
result.type: AUC (ng·h/mL)
Give bare numbers, in ng·h/mL.

[ask] Query: AUC; subject: COc1cc2c(cc1OC)CN(CCc1ccc(NC(=O)c3cccc(/C=c4\[nH]c(=O)/c(=C/c5ccccc5)n(C)c4=O)c3)cc1)CC2
[reply] 57100

---

# measurement.description: Plasma levels of XR9051 after single oral dose in Balb/c mice
# Type: in vivo
# run.conditions: mouse, po, p.o. 50 mg kg-1, Balb/c mice, read-out: AUC0-24 h
result.type: AUC(0-t) (ng·h/mL)
One number for each entry, in ng·h/mL.

[ask] # AUC(0-t) lookup, item COc1cc2c(cc1OC)CN(CCc1ccc(NC(=O)c3cccc(/C=c4\[nH]c(=O)/c(=C/c5ccccc5)n(C)c4=O)c3)cc1)CC2 [XR9051]
[reply] 13500
